# assay_details: Pour point
# Assay type: physicochemical
# setup_conditions: Table 2, base oil
Sorting guide: entries reporting Pour point beneath -60 °C go in the yes pile, the rest go in the no pile.

compound	class
CCCCCCCCCCCCCOC(=O)CCCCCCCC(=O)OCCCCCCCCCCCCC [Ditridecyl azelate]	no

Please indicate whether the reported Pour point of CC(C)CCCCCCCCCCOC(=O)CCCCCCCCCCC(=O)OCCCCCCCCCCC(C)C [C12D13, di(isotridecyl)dodecanedioate] is strictly below -60 °C. no

How about this compound: CCCCCCCCC(CCCCCC)COC(=O)CCCCCCCC(=O)OCC(CCCCCC)CCCCCCCC (stereo not shown) [Bis(2-hexyldecyl) azelate] yes

Field entry: CC(C)CCCCCCCCCCOC(=O)CCCCC(=O)OCCCCCCCCCCC(C)C [DITA, diisotridecyl adipate, reference compound] no

Lookup CC(C)CCCCCCCOC(=O)CCCCCCCC(=O)OCCCCCCCC(C)C [Diisodecyl azelate] yes

How about this compound: CC(C)CCCCCCCCCCOC(=O)CCCCCCCC(=O)OCCCCCCCCCCC(C)C [C9D13, di(isotridecyl)nonanedioate] no
